Reference for the values: ChEMBL document CHEMBL4382262

system name: Toll-like receptor 4 (Rattus norvegicus)
Sequence (whole entry): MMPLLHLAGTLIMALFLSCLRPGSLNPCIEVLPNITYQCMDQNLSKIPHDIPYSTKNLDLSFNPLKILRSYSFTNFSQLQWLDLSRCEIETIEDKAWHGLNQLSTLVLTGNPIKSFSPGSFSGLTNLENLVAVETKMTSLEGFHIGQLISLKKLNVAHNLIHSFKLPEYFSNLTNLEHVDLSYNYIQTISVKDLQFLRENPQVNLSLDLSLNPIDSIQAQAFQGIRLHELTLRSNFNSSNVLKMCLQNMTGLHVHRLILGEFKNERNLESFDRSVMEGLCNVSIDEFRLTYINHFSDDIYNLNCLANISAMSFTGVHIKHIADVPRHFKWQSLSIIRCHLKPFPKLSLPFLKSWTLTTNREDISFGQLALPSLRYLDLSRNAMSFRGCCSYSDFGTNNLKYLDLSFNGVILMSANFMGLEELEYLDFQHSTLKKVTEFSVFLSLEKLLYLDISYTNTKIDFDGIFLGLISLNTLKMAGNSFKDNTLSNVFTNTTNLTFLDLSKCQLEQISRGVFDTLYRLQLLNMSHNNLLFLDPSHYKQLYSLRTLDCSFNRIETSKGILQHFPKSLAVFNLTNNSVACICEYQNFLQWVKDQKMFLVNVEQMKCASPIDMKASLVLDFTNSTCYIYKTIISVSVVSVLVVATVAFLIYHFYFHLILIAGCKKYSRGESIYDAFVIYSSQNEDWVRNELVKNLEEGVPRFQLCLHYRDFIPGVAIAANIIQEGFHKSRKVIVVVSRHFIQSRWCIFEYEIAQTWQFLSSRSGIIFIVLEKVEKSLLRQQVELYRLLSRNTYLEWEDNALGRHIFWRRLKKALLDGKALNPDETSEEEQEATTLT
test details: Inhibition of TLR4 in Sprague-Dawley rat cardiomyocytes assessed as reduction in hypoxia-induced LDH release preincubated for 1 hr followed by hypoxia for 3 hrs by NADH detection based colorimetric analysis
Type: cell-based
The source made the active and inactive calls. The calls are words filed in the database; no cut-off is given here.
observed property: inhibition

compound: CSCC[C@H](NC(=O)[C@H](CCC(=O)O)NC(C)=O)C(=O)N1CCC[C@H]1C(=O)NC(CS)C(N)=O (single isomer, unassigned)
observed property: inhibition
assay value: inactive
--
compound: CCOc1nc(=O)n(Cc2ccccc2)cc1C
observed property: inhibition
assay value: inactive
--
compound: Cc1cn(Cc2ccccc2)c(=O)nc1NCCCN(C)C
observed property: inhibition
assay value: inactive

* * *

system name: Toll-like receptor 4 (Rattus norvegicus) (UniProt Q9QX05)
Sequence (whole entry): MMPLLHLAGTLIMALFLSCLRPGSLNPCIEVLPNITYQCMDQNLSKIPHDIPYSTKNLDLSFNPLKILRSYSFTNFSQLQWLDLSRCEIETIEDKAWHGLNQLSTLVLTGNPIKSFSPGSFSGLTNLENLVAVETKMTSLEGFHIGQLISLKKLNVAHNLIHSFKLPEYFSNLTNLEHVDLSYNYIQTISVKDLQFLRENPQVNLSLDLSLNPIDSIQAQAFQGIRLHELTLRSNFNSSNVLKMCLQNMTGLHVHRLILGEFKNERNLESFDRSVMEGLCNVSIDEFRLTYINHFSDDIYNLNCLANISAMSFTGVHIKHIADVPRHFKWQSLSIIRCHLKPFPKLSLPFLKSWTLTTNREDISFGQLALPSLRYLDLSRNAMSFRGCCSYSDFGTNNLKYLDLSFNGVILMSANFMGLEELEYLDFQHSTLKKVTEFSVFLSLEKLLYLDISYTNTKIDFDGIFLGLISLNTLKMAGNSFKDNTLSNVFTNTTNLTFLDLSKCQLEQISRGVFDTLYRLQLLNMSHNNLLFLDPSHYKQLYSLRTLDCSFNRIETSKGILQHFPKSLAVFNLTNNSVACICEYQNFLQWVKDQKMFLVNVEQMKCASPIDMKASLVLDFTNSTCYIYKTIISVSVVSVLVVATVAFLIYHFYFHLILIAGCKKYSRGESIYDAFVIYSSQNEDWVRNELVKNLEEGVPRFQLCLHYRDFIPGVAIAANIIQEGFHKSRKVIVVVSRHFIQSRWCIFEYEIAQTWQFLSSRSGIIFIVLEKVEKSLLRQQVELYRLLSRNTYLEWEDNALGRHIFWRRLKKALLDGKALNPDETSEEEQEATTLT
test details: Inhibition of TLR4 in Sprague-Dawley rat cardiomyocytes assessed as reduction in hypoxia-induced creatine kinase levels preincubated for 1 hr followed by hypoxia for 3 hrs by NADP reduction based colorimetric analysis
Format: cell-based
Activity calls are given as the source filed them. The calls are words filed in the database; no cut-off is given here. Where a SMILES comes first, the peptide text is derived from it.
Result category, one only: active, inactive

Query: I would be grateful if you could indicate the recorded call for Cc1cn(Cc2ccccc2)c(=O)nc1NC1CCCC1 .
Response: inactive

Query: Follow-up item: CSCC[C@H](NC(=O)[C@H](CCC(=O)O)NC(=O)[C@H](C)NC(=O)[C@H](Cc1ccccc1)NC(C)=O)C(N)=O (Ac-FAEM-NH2)
Response: active

Query: Record: CCCCCCCCNc1nc(=O)n(Cc2ccc(C(F)(F)F)cc2)cc1C
Response: inactive

Query: Next up: CCOc1nc(=O)n(Cc2ccccc2)cc1C
Response: inactive

Query: Follow-up entry: CC(=O)N[C@H](C(=O)N[C@@H](Cc1ccccc1)C(=O)N[C@@H](C)C(=O)N[C@@H](CCC(=O)O)C(N)=O)C(C)C (Ac-VFAE-NH2)
Response: active

* * *

system name: Toll-like receptor 4 (Rattus norvegicus) (UniProt Q9QX05)
test details: Inhibition of TLR4 in Sprague-Dawley rat cardiomyocytes assessed as reduction in hypoxia-induced LDH release preincubated for 1 hr followed by hypoxia for 3 hrs by NADH detection based colorimetric analysis
Format: cell-based
Calls of active or inactive are those of the source. No cut-off for these calls is given here. Where a SMILES comes first, the peptide text is derived from it.
Returns: one label drawn from t (active), f (inactive)

Past entries and their recorded results:
compound: Cc1cn(Cc2ccccc2)c(=O)nc1NC1CCCC1
system name: Toll-like receptor 4 (Rattus norvegicus) (UniProt Q9QX05)
class name: f
--
compound: CCCCCCCCNc1nc(=O)n(Cc2ccc(C(F)(F)F)cc2)cc1C
system name: Toll-like receptor 4 (Rattus norvegicus) (UniProt Q9QX05)
class name: f
--
compound: CCCCCCCCCCNc1nc(=O)n(Cc2ccccc2)cc1C
system name: Toll-like receptor 4 (Rattus norvegicus) (UniProt Q9QX05)
class name: f
--
compound: CSCC[C@H](NC(C)=O)C(=O)N1CCC[C@H]1C(=O)NC(CS)C(=O)NCC(N)=O (single isomer, unassigned)
system name: Toll-like receptor 4 (Rattus norvegicus) (UniProt Q9QX05)
class name: f
--
compound: CCOc1ncc(C)c(OCC)n1
system name: Toll-like receptor 4 (Rattus norvegicus) (UniProt Q9QX05)
class name: f
--
compound: CCOc1nc(=O)n(Cc2ccc3ccccc3c2)cc1C
system name: Toll-like receptor 4 (Rattus norvegicus) (UniProt Q9QX05)
class name: f
--
compound: CCCCCCCCNc1nc(=O)n(Cc2ccc([N+](=O)[O-])cc2)cc1C
system name: Toll-like receptor 4 (Rattus norvegicus) (UniProt Q9QX05)
class name: f
--
compound: CSCC[C@H](NC(=O)[C@H](CCC(=O)O)NC(=O)[C@H](C)NC(=O)[C@H](Cc1ccccc1)NC(C)=O)C(N)=O (Ac-FAEM-NH2)
system name: Toll-like receptor 4 (Rattus norvegicus) (UniProt Q9QX05)
class name: t

Query: Test call, this compound: Cc1cn(Cc2ccccc2)c(=O)nc1NCc1ccccc1
Response: f

Query: // same read-out, input: CCC(C)Nc1nc(=O)n(Cc2ccccc2)cc1C (stereo not drawn)
Response: f

Query: Param item: CCOc1nc(=O)n(Cc2ccc(C(F)(F)F)cc2)cc1C
Response: f

Query: CC(=O)N[C@@H](Cc1ccccc1)C(=O)N[C@@H](C)C(=O)N[C@@H](CCC(=O)O)C(N)=O (Ac-Phe-Ala-Glu-NH2) ?
Response: f

Query: Record: CC(=O)N[C@H](C(=O)N[C@@H](Cc1ccccc1)C(=O)N[C@@H](C)C(=O)N[C@@H](CCC(=O)O)C(N)=O)C(C)C (Ac-VFAE-NH2)
Response: t

Query: What about this compound? CCOc1nc(=O)n(Cc2ccc([N+](=O)[O-])cc2)cc1C
Response: f

* * *

system name: Toll-like receptor 4 (Rattus norvegicus)
test details: Inhibition of TLR4 in Sprague-Dawley rat cardiomyocytes assessed as reduction in hypoxia-induced LDH release preincubated for 1 hr followed by hypoxia for 3 hrs by NADH detection based colorimetric analysis
Assay type: cell-based
Active and inactive are the calls of the source. The rule behind the calls is not given here. Where a SMILES comes first, the peptide text is derived from it.

compound: CSCC[C@H](NC(=O)[C@H](CCC(=O)O)NC(=O)[C@H](C)NC(C)=O)C(=O)N1CCC[C@H]1C(N)=O (Ac-AEMP-NH2)
system name: Toll-like receptor 4 (Rattus norvegicus)
inhibition: Dose-dependent effect

compound: CC(=O)N[C@H](C(=O)N[C@@H](Cc1ccccc1)C(=O)N[C@@H](C)C(N)=O)C(C)C (Ac-Val-Phe-Ala-NH2)
system name: Toll-like receptor 4 (Rattus norvegicus)
inhibition: inactive

compound: CC[C@H](C)[C@H](NC(C)=O)C(=O)N[C@@H](Cc1ccccc1)C(=O)N[C@@H](C)C(N)=O (Ac-Ile-Phe-Ala-NH2)
system name: Toll-like receptor 4 (Rattus norvegicus)
inhibition: inactive

compound: CC[C@H](C)[C@H](NC(C)=O)C(=O)N[C@H](C(=O)N[C@@H](Cc1ccccc1)C(=O)N[C@@H](C)C(N)=O)C(C)C (Ac-IVFA-NH2)
system name: Toll-like receptor 4 (Rattus norvegicus)
inhibition: Dose-dependent effect
